tested_on: IDO1 in IFNγ stimulated HeLa cells (Homo sapiens)
Construct: endogenous in cells; host or cells: HeLa cells stimulated with IFNγ
Sequence (P14902 whole entry): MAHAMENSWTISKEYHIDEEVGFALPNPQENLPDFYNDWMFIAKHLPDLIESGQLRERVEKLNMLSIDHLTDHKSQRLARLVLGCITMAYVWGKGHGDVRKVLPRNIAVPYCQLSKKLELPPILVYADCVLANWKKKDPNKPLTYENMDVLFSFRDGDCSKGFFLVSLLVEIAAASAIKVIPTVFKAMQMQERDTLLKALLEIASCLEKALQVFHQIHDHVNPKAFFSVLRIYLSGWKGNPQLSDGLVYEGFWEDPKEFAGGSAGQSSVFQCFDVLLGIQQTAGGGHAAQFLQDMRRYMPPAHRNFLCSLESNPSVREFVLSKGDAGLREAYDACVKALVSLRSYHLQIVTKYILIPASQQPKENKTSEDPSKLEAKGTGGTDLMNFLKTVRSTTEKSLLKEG
measurement_protocol: IDO1 inhibition assay in HeLa cells stimulated with IFNγ
Type: cell-based
applied_conditions: Table 15; read-out: Inhibition HeLa cells IC50
Method: Lead compounds prioritized in the recombinant IDO1 inhibition assay were advanced to a cellular IDO1 inhibition assay. Protocol: HeLa cells were trypsinized and diluted to a density of 2×10^5 cells/mL in cell culture medium (DMEM+10% Fetal Bovine Serum (FBS)+1% Penicillin/Streptomycin). […] The resulting fluorescence was measured in a BioTek Synergy H1 plate reader with a 400 nm excitation filter and a 510 nm emission filter. […]
endpoint_label: pIC50
Interpret pIC50 as the negative base-10 log of the concentration measured in mol/L.

get_value(item= O=C(O)CSc1nonc1/C(=N/O)Nc1ccc(F)c(Br)c1 , readout=pIC50) returns 6.90

###

Below: a set of entries, each annotated with reported IC50.
tested_on: recombinant human IDO1 (Homo sapiens)
Construct: purchased BPS Biosciences 72037
measurement_protocol: IDO1 Fluorogenic Inhibitor Screening Assay (enzyme inhibition)
Format: biochemical
applied_conditions: N-methylated heterobiligands, PEG6 linker; read-out: IC50
Bridge positions count the residues as written; N and C are the ends. Square brackets hold non-standard residues; d marks the D form. Triazole bridges read from a SMILES are 1,4-linked. Peptide text beside a SMILES is read from it. * marks the point of attachment. NMeLys(N3) = CN[C@@H](CCCCN=[N+]=[N-])C(=O)O; X1 = O=C(CSc1nonc1/C(=N/O)Nc1ccc(F)c(Br)c1)*; Lys(N3) = [N-]=[N+]=NCCCC[C@H](N)C(=O)O; PEG6 = NCCOCCOCCOCCOCCOCCOCCC(=O)O; dNMeV = CN[C@@H](C(=O)O)C(C)C; Pra = C#CC[C@H](N)C(=O)O
Give your result in nM as a bare value.

Look over these answered cases.
| compound | measurement_unit | observed_result |
| --- | --- | --- |
| CC(C)[C@@H]1C(=O)N[C@H](C)C(=O)N[C@H](Cc2ccc(O)cc2)C(=O)N[C@H](C(N)=O)CCCCn2cc(nn2)C[C@H](NC(=O)CCOCCOCCOCCOCCOCCOCCNC(=O)CSc2nonc2/C(=N/O)Nc2ccc(F)c(Br)c2)C(=O)N[C@H](Cc2c[nH]c3ccccc23)C(=O)N[C@H](Cc2ccc(O)cc2)C(=O)N1C [Inh-PEG6-wy(N-Me-v)ay] ({X1-PEG6}-[Pra][dW][dY][dNMeV][dA][dY][Lys(N3)]-NH2; triazole 1-7) | nM | 1460 |
| O=C(O)CSc1nonc1/C(=N/O)Nc1ccc(F)c(Br)c1 [Inh] | nM | 928 |
| CC(C)[C@H]1NC(=O)[C@@H](Cc2ccc(O)cc2)NC(=O)[C@@H](Cc2c[nH]c3ccccc23)NC(=O)[C@@H](NC(=O)CCOCCOCCOCCOCCOCCOCCNC(=O)CSc2nonc2/C(=N/O)Nc2ccc(F)c(Br)c2)Cc2cn(nn2)CCCC[C@@H](C(N)=O)NC(=O)[C@@H](Cc2ccc(O)cc2)NC(=O)[C@@H](C)NC1=O [Inh-PEG6-wyvay] ({X1-PEG6}-[Pra][dW][dY][dV][dA][dY][Lys(N3)]-NH2; triazole 1-7) | nM | 44 |

get_value(item= CC(C)[C@H]1NC(=O)[C@@H](Cc2ccc(O)cc2)NC(=O)[C@@H](Cc2c[nH]c3ccccc23)NC(=O)[C@@H](NC(=O)CCOCCOCCOCCOCCOCCOCCNC(=O)CSc2nonc2/C(=N/O)Nc2ccc(F)c(Br)c2)Cc2cn(nn2)CCCC[C@@H](C(N)=O)N(C)C(=O)[C@@H](Cc2ccc(O)cc2)NC(=O)[C@@H](C)NC1=O [Inh-PEG6-wyvay(N-Me)] ({X1-PEG6}-[Pra][dW][dY][dV][dA][dY][NMeLys(N3)]-NH2; triazole 1-7) , readout=IC50) returns 622

###

tested_on: recombinant human IDO1 (Homo sapiens, UniProt P14902)
Construct: purchased BPS Biosciences 72037
Sequence (P14902 whole entry): as the sequence (P14902 whole entry) above
measurement_protocol: IDO1 Fluorogenic Inhibitor Screening Assay (enzyme inhibition)
Assay type: biochemical
applied_conditions: linker composition series; read-out: IC50
endpoint_label: IC50 (nM)
Give your result in nM as a bare value.

Entry O=C(O)CSc1nonc1/C(=N/O)Nc1ccc(F)c(Br)c1 , tested on recombinant human IDO1 (Homo sapiens, UniProt P14902), has a reported IC50 of 693

###

tested_on: His-tagged IDO1 human recombinant protein (Homo sapiens, UniProt P14902)
Construct: purchased BPS Biosciences 71182
Sequence (P14902 whole entry): as the sequence (P14902 whole entry) above
measurement_protocol: IDO1 ELISA (Affinity Assay): sandwich ELISA, biotinylated ligand immobilized on NEUTRAVIDIN plate
Assay type: binding
applied_conditions: 2 μM biotinylated macrocycle immobilized; human IDO1 titrated 200 to 0 nM; read-out: EC50, sandwich ELISA for human IDO1 protein against biotin-PEG3-modified macrocycle
Bridge positions count the residues as written; N and C are the ends. Square brackets hold non-standard residues; d marks the D form. Triazole bridges read from a SMILES are 1,4-linked. Peptide text beside a SMILES is read from it. * marks the point of attachment. Biotinyl(3aR,4R,6aS) = O=C1N[C@@H]2[C@@H](CS[C@@H]2CCCCC(=O)*)N1; dTrp(1-Me) = Cn1cc(C[C@@H](N)C(=O)O)c2ccccc21; Lys(N3) = [N-]=[N+]=NCCCC[C@H](N)C(=O)O; AEEEA = NCCOCCOCCOCC(=O)O; Pra = C#CC[C@H](N)C(=O)O
endpoint_label: EC50 (nM)
Give your result in nM as a bare value.

get_value(item= CC(C)C[C@H]1NC(=O)[C@@H](CC(N)=O)NC(=O)[C@@H](NC(=O)COCCOCCOCCNC(=O)CCCC[C@H]2SC[C@H]3NC(=O)N[C@H]32)Cc2cn(nn2)CCCC[C@@H](C(N)=O)NC(=O)[C@@H](CCCNC(=N)N)NC(=O)[C@@H](Cc2cn(C)c3ccccc23)NC(=O)[C@@H](Cc2c[nH]c3ccccc23)NC1=O [nlw(Me-Trp)r, biotin-PEG3-Cy(nlw(Me-Trp)r)] ({Biotinyl(3aR,4R,6aS)-AEEEA}-[Pra][dN][dL][dW][dTrp(1-Me)][dR][Lys(N3)]-NH2; triazole 1-7) , readout=EC50) returns 43

###

tested_on: recombinant human IDO1 (Homo sapiens, UniProt P14902)
Construct: purchased BPS Biosciences 72037
measurement_protocol: IDO1 Fluorogenic Inhibitor Screening Assay (enzyme inhibition)
Format: biochemical
applied_conditions: effect of linker and of protection of the inhibitor; read-out: IC50
endpoint_label: IC50 (nM)
Give your result in nM as a bare value.

get_value(item= O=C(O)CSc1nonc1/C(=N/O)Nc1ccc(F)c(Br)c1 , readout=IC50) returns 616

###

Below: a set of entries, each annotated with reported pIC50.
tested_on: recombinant human IDO1 (Homo sapiens)
Construct: purchased BPS Biosciences 72037
measurement_protocol: IDO1 Fluorogenic Inhibitor Screening Assay (enzyme inhibition)
Type: biochemical
applied_conditions: Table 19; read-out: Inhibition Human rIDO1 IC50
Numbered stars: 1 amine (or outer) side, 2 acyl side, 3 side chain; on linkers, the order of the positions; unused ones are H or OH. Bridge positions count the residues as written; N and C are the ends. Square brackets hold non-standard residues; d marks the D form. Triazole bridges read from a SMILES are 1,4-linked. Peptide text beside a SMILES is read from it. * marks the point of attachment. NH(CH2CH2O)5CH2CO = O=C(COCCOCCOCCOCCOCCN[*:1])[*:2]; X2 = O=C(CCCCCSc1nonc1/C(=N/O)Nc1ccc(F)c(Br)c1)*; X1 = O=C(CSc1nonc1/C(=N/O)Nc1ccc(F)c(Br)c1)*; Lys(N3) = [N-]=[N+]=NCCCC[C@H](N)C(=O)O; PEG6 = NCCOCCOCCOCCOCCOCCOCCC(=O)O; Pra = C#CC[C@H](N)C(=O)O
Interpret pIC50 as the negative base-10 log of the concentration measured in mol/L.

Look over these answered cases.
| compound | observed_result |
| --- | --- |
| CC(C)[C@H]1NC(=O)[C@@H](Cc2ccc(O)cc2)NC(=O)[C@@H](Cc2c[nH]c3ccccc23)NC(=O)[C@@H](NC(=O)CCOCCOCCOCCOCCOCCOCCNC(=O)CSc2nonc2/C(=N/O)Nc2ccc(F)c(Br)c2)Cc2cn(nn2)CCCC[C@@H](C(N)=O)NC(=O)[C@@H](Cc2ccc(O)cc2)NC(=O)[C@@H](C)NC1=O [Inh-PEG6-wyvay] ({X1-PEG6}-[Pra][dW][dY][dV][dA][dY][Lys(N3)]-NH2; triazole 1-7) | 6.58 |
| O=C(O)CCCCCSc1nonc1/C(=N/O)Nc1ccc(F)c(Br)c1 | 6.46 |
| O=C(O)CSc1nonc1/C(=N/O)Nc1ccc(F)c(Br)c1 | 5.98 |

Moving on to the next compound.
get_value(item= CC(C)[C@H]1NC(=O)[C@@H](Cc2ccc(O)cc2)NC(=O)[C@@H](Cc2c[nH]c3ccccc23)NC(=O)[C@@H](NC(=O)COCCOCCOCCOCCOCCNC(=O)CCCCCSc2nonc2/C(=N/O)Nc2ccc(F)c(Br)c2)Cc2cn(nn2)CCCC[C@@H](C(N)=O)NC(=O)[C@@H](Cc2ccc(O)cc2)NC(=O)[C@@H](C)NC1=O [Inh2-PEG5-wyvay] (X2-[NH(CH2CH2O)5CH2CO][Pra][dW][dY][dV][dA][dY][Lys(N3)]-NH2; triazole 2-8) , readout=pIC50) returns 6.27
